SYSTEM UNDER TEST: Potassium channel subfamily K member 9 (Homo sapiens, UniProt Q9NPC2)
Sequence (Q9NPC2 whole entry): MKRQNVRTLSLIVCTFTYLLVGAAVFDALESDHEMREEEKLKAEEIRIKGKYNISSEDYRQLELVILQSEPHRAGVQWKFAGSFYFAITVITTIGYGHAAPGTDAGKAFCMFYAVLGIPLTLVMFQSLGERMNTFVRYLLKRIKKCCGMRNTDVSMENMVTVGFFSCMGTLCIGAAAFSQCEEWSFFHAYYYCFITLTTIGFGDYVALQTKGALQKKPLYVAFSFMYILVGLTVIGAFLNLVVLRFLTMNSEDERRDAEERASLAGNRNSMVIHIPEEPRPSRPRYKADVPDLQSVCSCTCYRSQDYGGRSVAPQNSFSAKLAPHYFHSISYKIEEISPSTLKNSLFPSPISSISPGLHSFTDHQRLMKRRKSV
METHOD NOTES: Inhibition of human TASK-3 expressed in Xenopus laevis oocytes assessed as inhibition of channel current at +40mV holding potential by two-electrode voltage clamp assay
Assay type: cell-based, Oocyte
pIC50: −log10 of the molar value.
REPORTED ENDPOINT: pIC50

A. O=C(Nc1cccc(C(=O)Nc2nccs2)c1)c1ccccc1
B. CCc1ccccc1NC(=O)c1cccc(NC(=O)c2ccccc2)c1
Choose between A and B : whose measured pIC50 value is numerically larger? // output: label of the selected item
B

---

SYSTEM UNDER TEST: Potassium channel subfamily K member 3 (Homo sapiens, UniProt O14649)
METHOD NOTES: Inhibition of human TASK-1 expressed in Xenopus laevis oocytes assessed as inhibition of channel current at 10 uM at +40mV holding potential by two-electrode voltage clamp assay
Format: cell-based
ASSAY SETUP: Oocyte
Sequence (O14649 whole entry, looked up): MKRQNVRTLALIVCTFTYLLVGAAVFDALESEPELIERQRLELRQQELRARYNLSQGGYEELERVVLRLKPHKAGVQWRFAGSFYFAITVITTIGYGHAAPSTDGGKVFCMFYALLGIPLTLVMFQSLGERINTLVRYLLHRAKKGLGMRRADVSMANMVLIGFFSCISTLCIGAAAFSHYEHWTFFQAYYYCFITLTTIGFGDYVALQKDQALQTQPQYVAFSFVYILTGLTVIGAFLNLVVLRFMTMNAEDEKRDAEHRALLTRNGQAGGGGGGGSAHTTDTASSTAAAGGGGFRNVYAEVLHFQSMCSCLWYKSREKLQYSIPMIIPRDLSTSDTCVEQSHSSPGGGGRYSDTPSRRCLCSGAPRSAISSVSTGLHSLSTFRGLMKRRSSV
The source made the active and inactive calls. The rule behind the calls is not given here.
REPORTED ENDPOINT: inhibition

| INPUT SMILES | inhibition |
| --- | --- |
| O=C(Nc1cccc(C(=O)Nc2ccc(F)cc2)c1)c1ccccc1 | 25% |
| COc1ccc(NC(=O)c2cccc(NC(=O)c3ccccc3)c2)cc1 | 10% |
| CCc1ccccc1NC(=O)c1cccc(NC(=O)c2ccccc2)c1 | Active |
| O=C(Nc1cccc(C(=O)Nc2ncccc2O)c1)c1ccccc1 | Active |
| O=C(Nc1cccc(C(=O)Nc2nccs2)c1)c1ccccc1 | Active |

Now let's try a different one.
# get_value(readout= inhibition, system= Potassium channel subfamily K member 3 (Homo sapiens, UniProt O14649)) for `O=C(NCc1ccccc1)c1cccc(NC(=O)c2ccccc2)c1`
Active

---

SYSTEM UNDER TEST: UniProt:O14649
METHOD NOTES: Inhibition of human TASK-1 expressed in Xenopus laevis oocytes assessed as inhibition of channel current at +40mV holding potential by two-electrode voltage clamp assay
Sequence (O14649 whole entry): as the sequence (O14649 whole entry, looked up) above
pIC50: −log10 of the molar value.
REPORTED ENDPOINT: pIC50

Example entries begin here.
| INPUT SMILES | SYSTEM UNDER TEST | pIC50 |
| --- | --- | --- |
| O=C(c1ccccc1F)N1CCN(Cc2c(-c3ccc(Br)cc3)nc3ccccn23)CC1 | UniProt:O14649 | 5.02 |
| CCCS(=O)(=O)Nc1ccccc1C(=O)N[C@H](CC)c1ccc(OC)nc1 | UniProt:O14649 | 6.70 |
| O=C(c1cccc(OC(F)(F)F)n1)N1CCN(Cc2c(-c3ccc(Cl)cc3)nc3ccccn23)CC1 | UniProt:O14649 | 5.12 |

I. CCc1ccccc1NC(=O)c1cccc(NC(=O)c2ccccc2)c1
II. O=C(Nc1cccc(C(=O)Nc2nccs2)c1)c1ccccc1
Between I and II , which one has the lower reported pIC50 value? In your reply, give the label of the chosen option.
II
(II: 6.41, I: 6.83)

---

SYSTEM UNDER TEST: Potassium channel subfamily K member 9 (Homo sapiens, UniProt Q9NPC2)
METHOD NOTES: Inhibition of human TASK-3 expressed in Xenopus laevis oocytes assessed as inhibition of channel current at 10 uM at +40mV holding potential by two-electrode voltage clamp assay
Type: cell-based
ASSAY SETUP: Oocyte
Activity calls are given as the source filed them. The calls are words filed in the database; no cut-off is given here.

| INPUT SMILES | SYSTEM UNDER TEST | inhibition |
| --- | --- | --- |
| O=C(NCc1ccccc1)c1cccc(NC(=O)c2ccccc2)c1 | Potassium channel subfamily K member 9 (Homo sapiens, UniProt Q9NPC2) | Active |
| CCc1ccccc1NC(=O)c1cccc(NC(=O)c2ccccc2)c1 | Potassium channel subfamily K member 9 (Homo sapiens, UniProt Q9NPC2) | Active |
| O=C(Nc1cccc(C(=O)Nc2ncccc2O)c1)c1ccccc1 | Potassium channel subfamily K member 9 (Homo sapiens, UniProt Q9NPC2) | Active |
| O=C(Nc1cccc(C(=O)Nc2nccs2)c1)c1ccccc1 | Potassium channel subfamily K member 9 (Homo sapiens, UniProt Q9NPC2) | Active |
